These entries and their values trace back to the kinase profiling compilation of Christmann-Franck et al. (2016).

# measured target: CSK (human)
# assay name: radiometric filter-binding kinase assay
# recorded conditions: compound 0.1 µM
experimental endpoint: residual activity (%)

Cc1ccc(Sc2cnc(Nc3cccc(Br)n3)s2)cc1C(=O)N1CCN(C(=O)CN)CC1 103
Cc1cc(NC(=O)c2cccc(NC(=O)/C=C/CN(C)C)c2)ccc1Nc1nccc(-c2cccnc2)n1 110
Cc1cccc(-c2nn(C(=S)Nc3ccccc3)cc2-c2ccnc3ccccc23)n1 97
NC(=O)c1cc2c(-c3cccc(-c4ccccc4)c3)cnc(N)c2s1 90

----------
# measured target: EPHB1 (human)
# assay name: radiometric filter-binding kinase assay
# recorded conditions: compound 0.1 µM
experimental endpoint: residual activity (%)

compound	unit spec	residual activity
c1ccc2c(-c3cnn4cc(-c5ccc(N6CCNCC6)cc5)cnc34)ccnc2c1	%	117
O=C(O)c1ccc(-c2c[nH]c3ncc(-c4ccccc4)cc23)cc1C1CCCC1	%	94
COc1cc(O)c2c(c1)/C=C/C[C@H](O)[C@H](O)C(=O)/C=C\C[C@H](C)OC2=O	%	99
COc1cc(O)c2c(c1)[C@H]1OC1C[C@H](O)[C@H](O)C(=O)/C=C\C[C@H](C)OC2=O (stereo not given in full)	%	110
O=C(N[C@@H](COc1ccc2[nH]c(=O)[nH]c2c1)c1ccccc1)c1cccn(Cc2ccc(F)c(F)c2)c1=O	%	87
